- Tested on: Leishmania donovani
- assay.comment: Leishmania intramacrophage assay
- Format: functional, organism-based
- Parameters: scale not given: in the data most compounds retested in dose-response had high values
- assay.setup: 30.3 µM; […]
Screen size: about 69,000 compounds; about 1,000 (1.4%) showed an effect of 50% or more. Shown is part of a subset that was picked to be rich in strong results.

>  <compound>
CCN1CC2(CCN(CCOc3ccc(F)cc3)CC2)CC1=O

>  <subject.of.test>
Leishmania donovani

>  <Percent Effect (%)>
52.2

$$$$
>  <compound>
Fc1cnc(N2CCO[C@H]3[C@H](OCC4CCOCC4)CC[C@@H]32)nc1.O=C(O)C(F)(F)F

>  <subject.of.test>
Leishmania donovani

>  <Percent Effect (%)>
42.92

$$$$
>  <compound>
CCc1cnc(N)nc1N[C@@H](C)c1ncccc1C

>  <subject.of.test>
Leishmania donovani

>  <Percent Effect (%)>
22.19

$$$$
>  <compound>
O=C(NC1CC1)C1CCc2nnc(-c3cccc(C(F)(F)F)c3)n21 (configuration not stated)

>  <subject.of.test>
Leishmania donovani

>  <Percent Effect (%)>
10.31

$$$$
>  <compound>
O=C1CC2(CCCC2)CN1CCOc1ccc(F)cc1

>  <subject.of.test>
Leishmania donovani

>  <Percent Effect (%)>
12.36

$$$$
>  <compound>
CCc1cnc(N)nc1NC(C)c1cnn(C)c1 (configuration not stated)

>  <subject.of.test>
Leishmania donovani

>  <Percent Effect (%)>
1.659

$$$$
>  <compound>
CCn1ccc(-c2cc(NCCCOc3ccccc3C)nc(C)n2)n1

>  <subject.of.test>
Leishmania donovani

>  <Percent Effect (%)>
56.31

$$$$
>  <compound>
CC1CCN(CC(=O)NC2CCN(C(C)c3ccccc3)CC2)CC1.Cl (configuration not stated)

>  <subject.of.test>
Leishmania donovani

>  <Percent Effect (%)>
0.5624

$$$$
>  <compound>
CCn1ccc(-c2cc(NCCCOc3cccc(C)c3)nc(C)n2)n1

>  <subject.of.test>
Leishmania donovani

>  <Percent Effect (%)>
7.258

$$$$
>  <compound>
CCN1CC2(CCC1=O)CCN(CCOc1ccc(F)cc1)CC2

>  <subject.of.test>
Leishmania donovani

>  <Percent Effect (%)>
19.57

$$$$
>  <compound>
Cc1nc(CN(C)c2nccc(C(F)(F)F)n2)cs1

>  <subject.of.test>
Leishmania donovani

>  <Percent Effect (%)>
5.886

$$$$
>  <compound>
CCc1cnc(N)nc1NC(C)c1ccc(C)c(C)c1 (configuration not stated)

>  <subject.of.test>
Leishmania donovani

>  <Percent Effect (%)>
88.85

$$$$

----------
- Test system: Leishmania donovani
- assay.comment: Leishmania intramacrophage assay
- Type: functional, organism-based
- Set-up: scale not given: in the data most compounds retested in dose-response had high values
- assay.setup: 30.3 µM; […]
Among all 69,000 compounds or so, about 1,000 (1.4%) showed an effect of 50% or more. Many of the other results were omitted from the sample, so strong results are more common in it than they were.
measure.name: Percent Effect (%)

>  <compound>
O=C(NCCCOC1CCCCC1)C1NCCc2[nH]cnc21 (stereo unspecified)

>  <numeric.result>
6.477

$$$$
>  <compound>
Cc1cc(CS(=O)(=O)C(C)C(=O)N(C)c2ccccc2)on1 (stereo unspecified)

>  <numeric.result>
59.375

$$$$
>  <compound>
CN(C)C(=O)CO[C@H]1CN(Cc2ccc3c(c2)OCO3)[C@@H]2COC[C@H]12.O=C(O)C(F)(F)F

>  <numeric.result>
10.2

$$$$
>  <compound>
O=C1CCC(=O)N1CCN1CCC(=Cc2ccccc2)CC1

>  <numeric.result>
5.63

$$$$
>  <compound>
Cc1noc(CS(=O)(=O)C(C)C(=O)N(C)c2ccccc2)n1 (stereo unspecified)

>  <numeric.result>
12.83

$$$$
>  <compound>
COCCCNC(=O)Cc1nc(-c2ccncc2)n[nH]1

>  <numeric.result>
-25.69

$$$$
>  <compound>
CCN1CC2(CCCCN2C(=O)c2ccsc2)CC1=O (stereo unspecified)

>  <numeric.result>
22.42

$$$$
>  <compound>
CCN1C(=O)[C@H]2CN(Cc3cccnc3)C[C@H]2C12CCN(C(C)=O)CC2

>  <numeric.result>
4.627

$$$$
>  <compound>
Cc1noc(C)c1CS(=O)(=O)C(C)C(=O)N(C)c1ccccc1 (stereo unspecified)

>  <numeric.result>
39.61

$$$$
>  <compound>
O=C(Cc1nc(-c2ccncc2)n[nH]1)N1CCOCC1

>  <numeric.result>
-34.22

$$$$
>  <compound>
O=C(Cc1nc(-c2ccncc2)n[nH]1)NCCCN1CCOCC1

>  <numeric.result>
58.11

$$$$

These data points were gathered from ChEMBL document CHEMBL3988442.
